Cited source: a melting point compilation (Tetko et al.; mined from patent text by program, amines drawn as free bases though some values may be those of a salt)

I'd be grateful if you could share measured melting point for these entries.

COc1ccc(-c2ccc3c(C(=O)N(C)C)cccc3c2)cc1	113 to 116 °C

Please go through the list and note melting point for each molecule.
1. Brc1ccc(-c2ccc(-c3ccc(Br)cc3)o2)cc1
2. O=C(CBr)c1cccc(Nc2ccc3ccccc3n2)c1
3. COCCOCC(=O)Nc1c([N+](=O)[O-])cnn1-c1c(Cl)cc(C(F)(F)F)cc1Cl
4. CCCCCCCCCCCCNC(=O)CSCc1cc(C(C)(C)C)c(O)c(C(C)(C)C)c1
5. CCC(CC)CNc1cccc(-c2ccnc3c(C(=O)c4cccs4)cnn23)c1
6. O=C1N(c2ccc(Cl)cc2)c2ncccc2C1(Cc1ccccc1)Cc1ccncc1 (stereo unspecified)
7. CC(C)C1(C)N=C(c2ncc(C3CC3)cc2C(=O)O)NC1=O (stereo unspecified)

["198 to 199 °C", "151 to 152 °C", "103 to 105 °C", "43 to 46 °C", "192 to 194 °C", "182 to 185 °C", "157 to 163 °C"]

Please go through the list and note melting point for each molecule.
1. CCN(CC)CCc1c[nH]c2ccc(N(CC)S(=O)(=O)c3ccc4ccccc4c3)cc12
2. Nc1ccc(Oc2ccc3sncc3c2)cc1
3. CNc1nc(-c2cccc(-c3ccc4nccn4c3)c2)c2cc(OC)c(OC)cc2n1

["49 to 50 °C", "100 °C", "237 to 239 °C"]

Please go through the list and note melting point for each molecule.
1. O=S(CCCCCl)Cc1ccc(Cl)cc1 (stereo unspecified)
2. Cc1noc(NS(=O)(=O)c2ccc(C(F)(F)F)cc2)c1Br
3. CCN(CC)C(=O)C=Cc1cc(OC)c(OC)c(OC)c1
4. CC(=O)N1CCN(CCOc2ccc(C3CCN(C4=Nn5c(nnc5C(F)(F)F)CC4)CC3)cc2)CC1
5. O=C1c2ccccc2C(=O)c2c(O)c(S(=O)(=O)c3ccccc3)cc(O)c21
6. C=CCOc1cc(C)ccc1[N+](=O)[O-]

["56 to 58 °C", "155 to 158 °C", "132 °C", "127 °C", "258 to 260 °C", "30 to 32 °C"]

Please go through the list and note melting point for each molecule.
1. CSc1ccc(-c2ccc(S(=O)(=O)CC(CO)N(O)C=O)cc2)cc1 (stereo unspecified)
2. Cc1c(NC(=O)CC(C)(C)C)c(C)c2c(C)coc2c1Cc1ccc(C(C)C)cc1
3. COc1ccc(S(=O)(=O)C(C)(CC=Cc2ccccc2)C(=O)NO)cc1 (stereo unspecified)
4. Cc1cccc2c3c(n(Cc4ccc(Cl)cc4)c12)C(CC(=O)O)CCC3 (single isomer, unassigned; (-))

1: 161 to 162 °C; 2: 171 to 172 °C; 3: 162 to 164 °C; 4: 196 to 198 °C

====

Parameter Measured: melting point

O=C(Oc1ccc(C(=O)c2ccc(Cl)cc2)cc1)Oc1ccc(C(=O)c2ccc(Cl)cc2)cc1	235 to 237 °C
CC(C)(OC(=O)NC(Cc1c[nH]c2ccccc12)C(=O)NC(Cc1ccccc1)C(N)=O)C(Cl)(Cl)Cl (centres undefined)	187 °C
CC1=C(c2ccncc2)SC(c2ccc(O)cc2)C(=O)N1 (centres undefined)	198 to 200 °C
CCCc1nc2c(N)nc3ccccc3c2n1CCCC(=O)N(C)OC	163 to 165 °C
Cc1oc(-c2ccccc2)nc1CCOc1ccc(C=CC=CC=C2OC(=O)NC2=O)cc1	209 to 211 °C

Please go through the list and note melting point for each molecule.
1. O=C1CCc2cc(NCC(=O)N3CCC(Cc4ccccc4)CC3)ccc2N1
2. COCCN1CCN(c2cccc(-c3nc4cc(OC)cc(OC)c4c(=O)[nH]3)n2)CC1
3. O=C(O)c1cnn(-c2ccc(F)cc2)c1Cl
4. Cc1c(F)c(Oc2cccc(C(F)(F)F)c2)nc(-c2ccc(C(F)(F)F)cc2)c1F
5. COc1ccc(Cl)c(Oc2c(Cl)ncnc2Cl)c1
6. CCCc1nnc2c3cccc(Br)c3ccn12
7. CC(=O)OCC1=C(C(=O)OCOC(=O)C(C)(C)C)N2C(=O)C(NC(=O)Cc3csc(=O)s3)C2SC1 (centres undefined)

1: 184 to 187 °C; 2: 99 to 101 °C; 3: 230 to 231 °C; 4: 87 °C; 5: 88 to 89 °C; 6: 197 to 199 °C; 7: 135 °C

====

I'd be grateful if you could share measured melting point for these entries.

Use the examples below as a reference point.
O=C(Nc1ccc(OC(F)(F)F)cc1)NC1CCN(C(=O)C(F)(F)F)CC1	150 to 154 °C
COc1ccc2c(CCN3CC=C(c4c[nH]c5ccccc45)CC3)coc2c1	54 °C
CC(C)(C)OC(=O)N1CCC(Oc2ccc(C3=NNC(=O)CC3)c(F)c2)CC1	146 to 148 °C

Please go through the list and note melting point for each compound.
1. CSc1cc2c(cc1C(F)(F)F)N(C(=O)Nc1ccc(C(=O)Nc3cccnc3)cc1)CC2
2. Cc1nc(-n2cnn(Cc3ccc(F)cc3)c2=O)sc1C#N
3. CCC(=O)Oc1cc(C(C)C)ccc1C1(OC(=O)CC)C(=O)c2ccccc2C1=O

1. > 200 °C
2. 190 to 192 °C
3. 123 to 125 °C

Please go through the list and note melting point for each compound.
1. Cc1nc2c(OCCCc3ccccc3)cccn2c1CC#N
2. CCC1(CC)c2cc(Br)ccc2-c2ccc(Br)cc21
3. COC(=O)c1cc2cc(C=O)ccc2[nH]1
4. CC(C)(C)CNc1cc(NCC(C)(C)C)nc(N2CCNCC2)n1

1: 143 to 145 °C; 2: 144 to 153 °C; 3: 208 °C; 4: 132 to 136 °C

====

I'd be grateful if you could share measured melting point for these entries.

Please go through the list and note melting point for each compound.
1. CC(C)Cn1c(CNC(=O)OC(C)(C)C)c(-c2cccs2)c2cc(OCC(N)=O)ccc2c1=O
2. BrC(c1ccccc1)c1ccc2ccccc2c1 (stereo not given)
3. N#CCCN(CCC#N)c1ccccc1C#N

219 to 221 °C
89 to 90 °C
79 to 82 °C

Please go through the list and note melting point for each compound.
1. CC(C)(C)SC1CN(C(=O)NCCN2C(=O)c3ccccc3C2=O)CC1NS(=O)(=O)c1ccc(Oc2ccccc2)cc1 (stereo not given)
2. NC(=O)[C@H]1CCC[C@H]1C(=O)O (relative stereo)
3. CC(C)(C)c1ccc(C(N)=O)c(NC(=O)Nc2cccnc2)c1
4. COC(=O)COCc1c(OC)ccc(OC)c1C=O
5. CC(C)N1CC(COc2ccc([N+](=O)[O-])c(C=O)c2)OC1=O (stereo not given)
6. CNC(=O)C1(CCCN2CCCCC2)CC=CCC1c1ccccc1 (stereo not given)
7. CC(C)(C)NS(=O)(=O)c1ccc(C(=O)c2ccc(Cl)cc2)cc1F

105 to 106 °C
132 to 133 °C
188 to 189 °C
177 to 179 °C
94 to 97 °C
145 to 147 °C
152 °C

====

Parameter Measured: melting point

CCOc1ccc(CCNC(=O)c2cnc3ccccc3c2)cc1S(N)(=O)=O	222 to 231 °C

Please go through the list and note melting point for each molecule.
1. CN1CCC(c2cccc(Cl)c2)(C(C)(C)O)CC1
2. COc1ccc(/C=C/C(=O)CC(=O)/C=C/c2ccc(O)c(F)c2)cc1O
3. Cc1ncc([N+](=O)[O-])n1CCN(CCCC(C)N(CCn1c([N+](=O)[O-])cnc1C)CCn1c([N+](=O)[O-])cnc1C)CCn1c([N+](=O)[O-])cnc1C (centres undefined)
4. OC(CCl)(c1ccccc1)c1ccc(-c2ccccc2)cc1 (centres undefined)

["149 to 150 °C", "173 to 176 °C", "150 to 151 °C", "94 °C"]

====

I'd be grateful if you could share measured melting point for these entries.

Use the examples below as a reference point.
COc1ccc(Br)cc1-c1ccc2nonc2c1	135 to 137 °C
CN(C)CCNC(=O)Cc1ccc(NC(=O)CCc2nc(-c3ccc4ccccc4c3)no2)cc1	173 to 174 °C
O=c1[nH]c2cc(Cl)cc(Cl)c2c(=O)n1Cc1ccc(F)cc1	301 to 304 °C

Please go through the list and note melting point for each compound.
1. O=C(CCCCc1ncc[nH]1)NNC(=O)N1Cc2ccccc2Oc2ccc(Cl)cc21
2. Nc1nc(C(=Cc2c(Cl)ccc(Cl)c2Cl)C(=O)O)cs1
3. Nc1ncc(C(=O)NCc2ccc(C(F)(F)F)cc2)c(N2CCCC2)n1
4. CC(C)(C)OC(=O)COc1cc(NC(=O)OC(C)(C)C)c(NC(=O)CC(=O)c2cccc(-n3ccnc3)c2)cc1-c1ccc(F)cc1
5. NS(=O)(=O)c1ccc(Cl)c(NC(=O)c2cnn3c(C(F)F)cc(-c4ccc(C(F)(F)F)cc4)nc23)c1
6. COc1cc2c(cc1OC)-c1cc(Cl)nc(=O)n1CC2

["164 to 166 °C", "> 210 °C", "227 to 228 °C", "82 to 85 °C", "286 °C", "235 to 236 °C"]
